- Tested on: A498
- measurement_notes: Growth inhibition of human A498 cells at 10 uM after 48 hrs by single dose SRB assay
- Type: functional
- measurement_setup: A498, 48 h, read-out: GI
Known inhibition of growth at 10 µM of a selection of molecules
API: value field is a number in %; no unit string.

CCOC(=O)c1cnn(CC(=O)N2c3ccccc3Sc3ccccc32)c1N    11.8
Cc1cc(-c2ccccc2)n(C(=O)CN2c3ccccc3Sc3ccccc32)n1    17.3
Cc1c2c(nn1CC(=O)N1c3ccccc3Sc3ccccc31)-c1ccccc1C2=O    19.4

--- query ---
inhibition of growth at 10 µM in this record for N#Cc1cnn(CC(=O)N2c3ccccc3Sc3ccccc32)c1N : 14
